# tested.target: CDK9/Cyclin T1 (Homo sapiens)
# Sequence (P50750 whole entry): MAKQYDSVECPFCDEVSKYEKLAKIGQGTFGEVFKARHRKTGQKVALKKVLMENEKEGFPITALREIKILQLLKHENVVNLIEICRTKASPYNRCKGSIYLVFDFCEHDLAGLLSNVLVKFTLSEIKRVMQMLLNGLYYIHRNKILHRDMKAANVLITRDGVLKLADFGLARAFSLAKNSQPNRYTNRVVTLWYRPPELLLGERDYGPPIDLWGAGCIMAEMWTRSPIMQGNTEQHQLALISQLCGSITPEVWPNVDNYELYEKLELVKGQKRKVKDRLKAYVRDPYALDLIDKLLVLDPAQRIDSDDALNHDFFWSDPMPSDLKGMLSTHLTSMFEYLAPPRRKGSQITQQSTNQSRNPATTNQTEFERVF
# Sequence (O60563 whole entry partner): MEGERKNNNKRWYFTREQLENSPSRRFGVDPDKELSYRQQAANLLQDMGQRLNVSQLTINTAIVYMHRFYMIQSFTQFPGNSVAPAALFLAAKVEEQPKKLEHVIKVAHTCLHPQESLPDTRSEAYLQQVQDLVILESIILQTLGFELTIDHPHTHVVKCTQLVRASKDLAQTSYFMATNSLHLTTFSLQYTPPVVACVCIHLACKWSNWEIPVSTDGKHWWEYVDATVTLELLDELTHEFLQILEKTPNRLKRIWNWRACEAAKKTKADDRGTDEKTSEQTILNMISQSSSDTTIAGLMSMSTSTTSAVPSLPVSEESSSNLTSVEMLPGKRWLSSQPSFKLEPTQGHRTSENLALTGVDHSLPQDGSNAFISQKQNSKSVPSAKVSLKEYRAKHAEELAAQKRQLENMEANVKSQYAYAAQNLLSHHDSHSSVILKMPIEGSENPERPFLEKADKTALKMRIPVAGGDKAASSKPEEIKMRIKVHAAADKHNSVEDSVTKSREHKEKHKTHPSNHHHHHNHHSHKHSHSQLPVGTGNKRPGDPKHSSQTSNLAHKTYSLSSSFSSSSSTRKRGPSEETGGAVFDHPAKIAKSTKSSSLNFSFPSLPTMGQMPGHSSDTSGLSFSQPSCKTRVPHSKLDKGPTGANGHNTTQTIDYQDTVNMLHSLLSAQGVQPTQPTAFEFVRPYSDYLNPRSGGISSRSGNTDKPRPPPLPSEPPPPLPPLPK
# assay.comment: CDK9/CyclinT1 Enzymatic Activity Assay (TR-FRET)
# details: ATP 1 mM, recombinant CDK9/Cyclin T1 1 nM, read-out: CDK9_T1 IC50
# Method: CDK9/CyclinT1 Enzymatic Activity Assay The inhibitory activity of compounds was evaluated in vitro using TR-FRET assay with white 384-well low volume microplate (Greiner Bio-One). CDK9/Cyclin T1 catalyzed phosphorylation of peptides in the presence and absence of compounds was measured and used in IC50 determination. […] The reaction signal was measured by Envision multimode plate reader (PerkinElmer, 2102-0010). […]
test.readout: IC50

Task item: Param item = CC(=O)N[C@@H]1CCC[C@H](C(=O)Nc2cc(-c3cccc4c3CCCN4)c(Cl)cn2)C1 ; retrieve measured IC50.
Reply: 20 to 200 nM

Task item: Now this one: CC(=O)N[C@@H]1CCC[C@H](C(=O)Nc2cc(-c3cccc4c3CCN4)c(Cl)cn2)C1
Reply: < 20 nM

Task item: Now this one: CC(=O)N[C@@H]1CCC[C@H](C(=O)Nc2cc(-c3cccc4c3CC(C)N4)c(Cl)cn2)C1 (some centres unmarked)
Reply: < 20 nM

Task item: Now this one: CC(=O)N[C@@H]1CCC[C@H](C(=O)Nc2cc(-c3cccc4c3CC(C)(C)O4)c(Cl)cn2)C1
Reply: < 20 nM

Task item: Now this one: CC1(C)Cc2cccc(-c3cc(NC(=O)[C@H]4CCC[C@@H](NC(=O)CC#N)C4)ncc3Cl)c2O1
Reply: < 20 nM

Task item: Now this one: CC(=O)N[C@@H]1CCC[C@H](C(=O)Nc2cc(-c3cccc4c3CC(C)(C)N4)c(Cl)cn2)C1
Reply: < 20 nM

Task item: Now this one: CC1(C)COc2c(cccc2-c2cc(NC(=O)[C@H]3CCC[C@@H](NC(=O)CC#N)C3)ncc2Cl)N1
Reply: < 20 nM

Task item: Now this one: Cc1cnc(NC(=O)[C@H]2CCC[C@@H](NC(=O)CC#N)C2)cc1-c1cccc2c1OCCN2
Reply: 20 to 200 nM

Task item: Now this one: CC(=O)N[C@@H]1CCC[C@H](C(=O)Nc2cc(-c3cccc4c3OCC(C)(C)N4)c(Cl)cn2)C1
Reply: < 20 nM

Task item: Now this one: CC(=O)N[C@@H]1CCC[C@H](C(=O)Nc2cc(-c3cccc4c3OCCN4)c(Cl)cn2)C1
Reply: < 20 nM

Task item: Now this one: N#CCC(=O)N[C@@H]1CCC[C@H](C(=O)Nc2cc(-c3cccc4c3OCCN4)c(Cl)cn2)C1
Reply: < 20 nM

Recorded values, source patent US20230265083A1.
